Entries and their measured half-life follow.
test: Stability in rat microsomes assessed half life; format: ADME, Microsome

Entry Cc1c(Cc2c(F)cccc2Cl)c(=O)oc2cc(O)cc(O)c12 , half-life reported as 5 min

For reference, reported half-life for COc1cc(OC)c2c(C)c(Cc3ccccc3)c(=O)[nH]c2c1 stands at > 30 min

Entry COc1ccc2c(Cl)c(C3NCCc4cc(OC)c(OC)cc43)sc2c1 (stereo not drawn) ; half-life = > 30 min

====

Listing of recorded log10 of IC50 by entry.
assay: Antiproliferative activity against human WERI cells assessed as inhibition of cell proliferation by propidium iodide uptake based fluoroskan microplate reader analysis; type: functional
Please interpret these as log10 of IC50 where IC50 is in nM.

Answered examples (5):
Entry O=C(NCc1ccccc1N1CCCC1)c1sc2ccccc2c1Cl ; log10 of IC50 = 3.10

// field: log10 of IC50; key: COc1cc2c(cc1OC)CN(C(=O)c1sc3ccccc3c1Cl)CC2 ; value = 2.79

Reported log10 of IC50 of COc1cc2c(cc1OC)C(c1sc3cccc(OC)c3c1Cl)NCC2 (stereo not drawn) : 2.51

Sure, the documented log10 of IC50 for CCCc1c(Cc2cccc(Cl)c2)c(=O)[nH]c2cc(OC)cc(OC)c12 is 2.98

Input COc1cc2c(cc1OC)C(c1sc3cccc(F)c3c1Cl)NCC2 (stereo not drawn) . Output log10 of IC50: 2.69

Others:
Quick note, log10 of IC50 for Cc1ccc2c(c1)CCN=C2c1sc2ccccc2c1Cl landed at 3.26

Lab note: measured log10 of IC50 of CC1c2ccsc2CCN1C(=O)c1sc2ccccc2c1Cl (stereo not drawn) was 3.19

Looking up COc1cccc2c1CCN=C2c1sc2cccc(C)c2c1Cl , I see its log10 of IC50 listed as 2.56

====

test: Antiproliferative activity against human WERI cells assessed as inhibition of cell proliferation by propidium iodide uptake based fluoroskan microplate reader analysis; type: functional
# Lookup of reported IC50 keyed by entry
Just the number in µM, nothing appended.

Fc1ccc2c(c1)CCCN2Cc1sc2ccccc2c1Cl yielded IC50 of 4.09

In plain terms, COc1ccc2c(c1)CCN(C)C2c1sc2ccccc2c1Cl (stereo unspecified) has a documented IC50 of 4.34

Value of measured IC50 for the entry COc1ccc2c(c1)CCCN2C(=O)c1sc2ccccc2c1Cl : 5.66

Entry under test: COc1ccc2sc(C(=O)N3CCCc4cc(C)ccc43)c(Cl)c2c1 . Its IC50 was 2.83

For O=C(c1sc2ccccc2c1Cl)N1CCCc2ccccc21 the molecule record lists IC50 as 9.8

The measured IC50 associated with COc1cc2c(cc1OC)C(c1sc3ccccc3c1Cl)N(C)CC2 (stereo unspecified) reads 1.77

====

assay: Antiproliferative activity against human WERI cells assessed as inhibition of cell proliferation by measuring normalized ratio of propidium iodide uptake at 10 uM by propidium iodide uptake based fluoroskan microplate reader analysis; type: functional
Ratio values, listed per item
Please state the value as a number alone, without comment.

Below, each entry is followed by its recorded Ratio result.
Ratio for O=C(c1sc2ccccc2c1Cl)N1CCCc2ccccc21 is 0.216

Notebook: COc1cc2c(cc1OC)C(c1sc3cccc(OC)c3c1Cl)NCC2 (centres undefined) , Ratio read as 0.012

Further cases:
Note to self: Ratio recorded for COc1ccc2c(c1)CCN=C2c1sc2ccccc2c1Cl was 0.035

Input CC1c2ccsc2CCN1C(=O)c1sc2ccccc2c1Cl (centres undefined) . Output Ratio: 0.056

Just so you know, measured Ratio for Cc1ccc2c(c1)CCCN2C(=O)c1sc2cccc(F)c2c1Cl came out at 0.097

Given item Cc1ccc(N(C)C(=O)c2sc3ccccc3c2Cl)c(C)c1 , the value recorded as its Ratio is 0.33

The origin of these recorded values is ChEMBL document CHEMBL3714762.
